All figures here come from paper PMC3866913.

# test system: α2β2-nAChR (Rattus norvegicus, UniProt P12389+P12390)
# Sequence (P12389 28-511): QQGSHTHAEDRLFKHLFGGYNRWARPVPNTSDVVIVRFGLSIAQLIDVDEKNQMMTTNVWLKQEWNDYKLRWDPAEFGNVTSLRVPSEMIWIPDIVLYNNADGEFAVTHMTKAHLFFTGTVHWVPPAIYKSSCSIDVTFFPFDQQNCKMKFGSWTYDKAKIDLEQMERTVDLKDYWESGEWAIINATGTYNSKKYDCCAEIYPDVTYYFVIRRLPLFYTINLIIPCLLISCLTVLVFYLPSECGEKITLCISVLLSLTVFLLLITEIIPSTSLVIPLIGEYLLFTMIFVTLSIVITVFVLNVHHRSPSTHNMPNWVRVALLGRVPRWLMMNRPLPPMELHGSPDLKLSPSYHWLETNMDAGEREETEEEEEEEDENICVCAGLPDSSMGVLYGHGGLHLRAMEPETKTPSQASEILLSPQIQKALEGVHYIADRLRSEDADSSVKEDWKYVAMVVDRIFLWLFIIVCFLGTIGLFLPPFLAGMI
# Sequence (P12390 25-500): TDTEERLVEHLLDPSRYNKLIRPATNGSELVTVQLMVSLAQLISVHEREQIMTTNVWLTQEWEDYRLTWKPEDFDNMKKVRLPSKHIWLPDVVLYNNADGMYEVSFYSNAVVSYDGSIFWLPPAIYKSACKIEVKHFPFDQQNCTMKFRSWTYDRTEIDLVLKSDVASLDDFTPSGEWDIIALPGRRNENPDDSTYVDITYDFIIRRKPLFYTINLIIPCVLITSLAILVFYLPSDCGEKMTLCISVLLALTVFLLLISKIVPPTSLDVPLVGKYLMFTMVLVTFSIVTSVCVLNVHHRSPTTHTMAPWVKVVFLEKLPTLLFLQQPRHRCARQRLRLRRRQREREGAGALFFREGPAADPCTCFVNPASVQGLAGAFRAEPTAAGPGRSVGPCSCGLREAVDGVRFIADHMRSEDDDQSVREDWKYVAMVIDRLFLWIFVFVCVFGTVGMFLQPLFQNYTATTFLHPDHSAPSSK
# assay comment: Heteromeric nAChR binding, transfected HEK293 membranes, [3H]epibatidine
# condition details: read-out: α2β2 Ki; stably transfected HEK293 cells, [3H]epibatidine 0.5 nM
readout: Ki

Task item: Request the reported Ki associated with O=S1(=O)c2cc(N3CCN4CCC3CC4)ccc2-c2cccc(F)c21 [7a]
Reply: > 10 µM

---

# test system: α7-nAChR (Rattus norvegicus, UniProt Q05941)
# Sequence (Q05941 23-502): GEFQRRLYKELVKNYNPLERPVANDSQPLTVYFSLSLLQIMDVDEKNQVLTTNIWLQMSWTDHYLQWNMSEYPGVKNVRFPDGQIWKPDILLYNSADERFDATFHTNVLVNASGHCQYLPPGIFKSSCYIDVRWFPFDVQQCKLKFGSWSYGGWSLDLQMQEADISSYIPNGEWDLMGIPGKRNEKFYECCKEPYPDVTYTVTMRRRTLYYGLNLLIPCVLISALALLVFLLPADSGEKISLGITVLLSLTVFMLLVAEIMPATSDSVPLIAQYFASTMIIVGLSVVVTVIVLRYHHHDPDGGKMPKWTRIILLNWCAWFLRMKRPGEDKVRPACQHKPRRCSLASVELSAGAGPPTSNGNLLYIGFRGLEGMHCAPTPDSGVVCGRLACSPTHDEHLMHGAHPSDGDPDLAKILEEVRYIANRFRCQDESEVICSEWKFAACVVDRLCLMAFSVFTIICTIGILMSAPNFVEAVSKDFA
# assay comment: biochemical
# Type: binding
# condition details: two independent assays, each in duplicate
readout: pKi
Answers are plain numbers, as −log10 of the molar value.

Task item: Request the reported pKi associated with O=S1(=O)c2cc(N3CCN4CCC3CC4)ccc2-c2cccc(I)c21
Reply: 8.71
